system: NCI-H1993; test: relative viability (nuclei count vs DMSO), 5 days (fraction); higher = more cells survive; conditions: first compound 0.005 µM
measured.metric: relative viability

{"columns": ["compound", "assay.value"],
 "data": [
  ["CC1(C)CCC(c2ccc(Cl)cc2)=C(CN2CCN(c3ccc(C(=O)NS(=O)(=O)c4ccc(N[C@H](CCN5CCOCC5)CSc5ccccc5)c(S(=O)(=O)C(F)(F)F)c4)cc3)CC2)C1 [Navitoclax] + Nc1nc2[nH]cc(CCc3ccc(C(=O)N[C@@H](CCC(=O)O)C(=O)O)cc3)c2c(=O)[nH]1 [Pemetrexed] (partner 0.2 µM)", 0.616],
  ["CC1(C)CCC(c2ccc(Cl)cc2)=C(CN2CCN(c3ccc(C(=O)NS(=O)(=O)c4ccc(N[C@H](CCN5CCOCC5)CSc5ccccc5)c(S(=O)(=O)C(F)(F)F)c4)cc3)CC2)C1 [Navitoclax] + CS(=O)(=O)N1CCN(Cc2cc3nc(-c4cccc5[nH]ncc45)nc(N4CCOCC4)c3s2)CC1 [Pictilisib] (partner 1 µM)", 0.808],
  ["CC1(C)CCC(c2ccc(Cl)cc2)=C(CN2CCN(c3ccc(C(=O)NS(=O)(=O)c4ccc(N[C@H](CCN5CCOCC5)CSc5ccccc5)c(S(=O)(=O)C(F)(F)F)c4)cc3)CC2)C1 [Navitoclax] + CC(=O)c1c(C)c2cnc(Nc3ccc(N4CCNCC4)cn3)nc2n(C2CCCC2)c1=O [Palbociclib] (partner 0.5 µM)", 0.7]
]}

---

test system: NCI-H1915; test: relative viability (nuclei count vs DMSO), 5 days (fraction); higher = more cells survive; conditions: first compound 0.03162 µM

{"columns": ["compound", "relative viability"],
 "data": [
  ["NC(=O)Nc1cc(-c2cccc(F)c2)sc1C(=O)N[C@H]1CCCNC1 [AZD7762] + O=C(c1cc(Cc2n[nH]c(=O)c3ccccc23)ccc1F)N1CCN(C(=O)C2CC2)CC1 [Olaparib] (partner 8 µM)", 0.308],
  ["NC(=O)Nc1cc(-c2cccc(F)c2)sc1C(=O)N[C@H]1CCCNC1 [AZD7762] + COc1cc2c(Oc3ccc(NC(=O)C4(C(=O)Nc5ccc(F)cc5)CC4)cc3F)ccnc2cc1OCCCN1CCOCC1 [Foretinib] (partner 0.25 µM)", 1.08],
  ["NC(=O)Nc1cc(-c2cccc(F)c2)sc1C(=O)N[C@H]1CCCNC1 [AZD7762] + CC(=O)c1c(C)c2cnc(Nc3ccc(N4CCNCC4)cn3)nc2n(C2CCCC2)c1=O [Palbociclib] (partner 0.5 µM)", 0.608],
  ["NC(=O)Nc1cc(-c2cccc(F)c2)sc1C(=O)N[C@H]1CCCNC1 [AZD7762] + N=C(N)NC(=N)NCCc1ccccc1 [Phenformin] (partner 250 µM)", 0.375],
  ["NC(=O)Nc1cc(-c2cccc(F)c2)sc1C(=O)N[C@H]1CCCNC1 [AZD7762] + CS(=O)(=O)CCNCc1ccc(-c2ccc3ncnc(Nc4ccc(OCc5cccc(F)c5)c(Cl)c4)c3c2)o1 [Lapatinib] (partner 2 µM)", 1],
  ["NC(=O)Nc1cc(-c2cccc(F)c2)sc1C(=O)N[C@H]1CCCNC1 [AZD7762] + CC1(C)CCC(c2ccc(Cl)cc2)=C(CN2CCN(c3ccc(C(=O)NS(=O)(=O)c4ccc(N[C@H](CCN5CCOCC5)CSc5ccccc5)c(S(=O)(=O)C(F)(F)F)c4)cc3)CC2)C1 [Navitoclax] (partner 0.5 µM)", 0.78]
]}

src = the supplement of paper PMC10307832
